Data origin, for the record: patent US20160264649A1

Target: HIV-1 Env of isolate MGRM-F1-012 (subtype F) (HIV-1)
Assay: cell-based or functional assay
reported_endpoint: IC50 (neutralization)

Entry PGT-123 (antibody, V domains shown) VH: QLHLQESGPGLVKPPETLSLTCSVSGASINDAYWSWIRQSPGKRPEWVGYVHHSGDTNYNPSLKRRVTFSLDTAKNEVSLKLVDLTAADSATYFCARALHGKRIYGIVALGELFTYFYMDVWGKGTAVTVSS VL: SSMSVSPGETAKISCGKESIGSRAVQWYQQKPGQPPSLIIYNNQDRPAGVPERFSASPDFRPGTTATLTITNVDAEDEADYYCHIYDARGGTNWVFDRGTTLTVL — recorded IC50 (neutralization) = 22.2 µg/mL

The value of IC50 (neutralization) measured for the binder PGT-136 (antibody, V domains shown) VH: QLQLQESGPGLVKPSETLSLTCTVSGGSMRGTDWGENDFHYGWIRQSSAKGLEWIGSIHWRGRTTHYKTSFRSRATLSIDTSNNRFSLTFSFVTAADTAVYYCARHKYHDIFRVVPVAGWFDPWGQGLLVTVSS VL: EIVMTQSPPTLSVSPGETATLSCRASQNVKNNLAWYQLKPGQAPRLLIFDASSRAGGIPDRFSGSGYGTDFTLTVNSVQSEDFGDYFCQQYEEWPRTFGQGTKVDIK turned out to be > 50 µg/mL

IC50 (neutralization) for PGT-125 (antibody, V domains shown) VH: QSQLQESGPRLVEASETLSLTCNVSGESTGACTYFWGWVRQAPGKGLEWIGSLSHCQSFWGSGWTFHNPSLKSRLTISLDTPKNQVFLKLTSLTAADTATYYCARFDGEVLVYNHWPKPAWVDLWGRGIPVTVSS VL: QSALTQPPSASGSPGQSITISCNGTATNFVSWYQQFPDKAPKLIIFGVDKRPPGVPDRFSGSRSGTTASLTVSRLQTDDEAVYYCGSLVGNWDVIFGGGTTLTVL is > 50 µg/mL

Documented IC50 (neutralization) of PGT-131 (antibody, V domains shown) VH: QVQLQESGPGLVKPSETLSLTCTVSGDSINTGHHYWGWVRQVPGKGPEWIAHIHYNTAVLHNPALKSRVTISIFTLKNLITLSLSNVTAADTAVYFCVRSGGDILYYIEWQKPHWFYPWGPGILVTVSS VL: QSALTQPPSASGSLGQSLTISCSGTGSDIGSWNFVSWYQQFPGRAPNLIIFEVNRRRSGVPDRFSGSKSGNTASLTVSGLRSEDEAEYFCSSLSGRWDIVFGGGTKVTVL : > 50 µg/mL

Documented IC50 (neutralization) of PGT-135 (antibody, V domains shown) VH: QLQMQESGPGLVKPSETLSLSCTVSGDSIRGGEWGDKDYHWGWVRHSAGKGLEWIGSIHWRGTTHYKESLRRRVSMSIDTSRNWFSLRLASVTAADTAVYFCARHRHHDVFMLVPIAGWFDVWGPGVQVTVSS VL: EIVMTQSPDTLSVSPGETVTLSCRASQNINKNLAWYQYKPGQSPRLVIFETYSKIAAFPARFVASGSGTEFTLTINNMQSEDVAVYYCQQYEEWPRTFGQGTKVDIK : 0.01 µg/mL
